test system: Staphylococcus aureus; experiment: Antibacterial activity against methicillin-resistant Staphylococcus aureus PU 20 harboring c-ermA gene incubated for 16 to 20 hrs by CLSI based broth microdilution method; assay type: functional; settings: time 16-20 hrs
Measured quantity: MIC

// lookup MIC | system=Staphylococcus aureus | key= "CC[C@H]1OC(=O)[C@H](C)[C@@H](OC(=O)CCN2CCN(c3cc4c(cc3F)c(=O)c(C(=O)O)cn4C3CC3)CC2)[C@H](C)[C@@H](O[C@@H]2O[C@H](C)C[C@H](N(C)C)[C@H]2O)[C@](C)(OC)C[C@@H](C)/C(=N\OCC#Cc2cncc(C(N)=O)c2)[C@H](C)[C@H]2OC(=O)O[C@@]21C"
> 256 µg/mL

Try this compound next: "CC[C@H]1OC(=O)[C@H](C)[C@@H](OC(=O)CCNCCCCCCCCNc2cc3c(=O)c(C(=O)O)cn(C4CC4)c3cc2Cl)[C@H](C)[C@@H](O[C@@H]2O[C@H](C)C[C@H](N(C)C)[C@H]2O)[C@](C)(OC)C[C@@H](C)/C(=N\OC)[C@H](C)[C@H]2OC(=O)O[C@@]21C"
128 µg/mL

###

tested on: Streptococcus pneumoniae; assay: Antibacterial activity against Streptococcus pneumoniae ATCC 49619 incubated for 16 to 20 hrs by CLSI based broth microdilution method; assay type: functional; conditions: time 16-20 hrs
Exercise: for every item that follows, state its recorded MIC.
Return type: number; implicit unit µg/mL.

Field request: MIC | item: "CC[C@H]1OC(=O)[C@H](C)[C@@H](OC(=O)CCN2CCN(c3cc4c(cc3F)c(=O)c(C(=O)O)cn4C3CC3)CC2)[C@H](C)[C@@H](O[C@@H]2O[C@H](C)C[C@H](N(C)C)[C@H]2O)[C@](C)(OC)C[C@@H](C)/C(=N\OCC#Cc2cncc(C(N)=O)c2)[C@H](C)[C@H]2OC(=O)O[C@@]21C"
0.25

Try this molecule next: "CC[C@H]1OC(=O)[C@H](C)[C@@H](OC(=O)CCNCCCCNc2cc3c(cc2F)c(=O)c(C(=O)O)cn3C2CC2)[C@H](C)[C@@H](O[C@@H]2O[C@H](C)C[C@H](N(C)C)[C@H]2O)[C@](C)(OC)C[C@@H](C)/C(=N\OC/C=C/c2ccc3c(c2)c(=O)c(C(N)=O)cn3CC)[C@H](C)[C@H]2OC(=O)O[C@@]21C"
0.06

Try this molecule next: "C#CCO/N=C1\[C@H](C)C[C@@](C)(OC)[C@H](O[C@@H]2O[C@H](C)C[C@H](N(C)C)[C@H]2O)[C@@H](C)[C@H](OC(=O)CCN2CCN(c3cc4c(cc3F)c(=O)c(C(=O)O)cn4C3CC3)CC2)[C@@H](C)C(=O)O[C@H](CC)[C@@]2(C)OC(=O)O[C@@H]2[C@H]1C"
0.5

Try this molecule next: "CC[C@H]1OC(=O)[C@H](C)[C@@H](OC(=O)CCN2CCN(c3cc4c(cc3F)c(=O)c(C(=O)O)cn4CC)CC2)[C@H](C)[C@@H](O[C@@H]2O[C@H](C)C[C@H](N(C)C)[C@H]2O)[C@](C)(OC)C[C@@H](C)/C(=N\OCC#Cc2cncc(C(=O)NC)c2)[C@H](C)[C@H]2OC(=O)O[C@@]21C"
0.12

Try this molecule next: "CC[C@H]1OC(=O)[C@H](C)[C@@H](OC(=O)CCNCCCCCNc2cc3c(cc2F)c(=O)c(C(=O)O)cn3C2CC2)[C@H](C)[C@@H](O[C@@H]2O[C@H](C)C[C@H](N(C)C)[C@H]2O)[C@](C)(OC)C[C@@H](C)/C(=N\OC)[C@H](C)[C@H]2OC(=O)O[C@@]21C"
0.062

Entry source: ChEMBL document CHEMBL5608186
